The entries that follow carry pIC50 values tested on huPPARα (Homo sapiens, UniProt Q07869), drawn from several published reports.
pIC50: −log10 of the molar value.
quantity: pIC50

Cc1oc(CCc2ccccc2)nc1CCOc1ccc(C[C@](C)(Oc2ccccc2)C(=O)O)cc1 :: 7.26

I = Cc1oc(-c2ccc(-c3cccs3)cc2)nc1CCOc1ccc(CC(C)(Oc2cccc(F)c2)C(=O)O)cc1 (stereo not drawn)
II = Cc1oc(-c2cccc(-c3ccccc3)c2)nc1CCOc1ccc(CC(C)(Oc2ccc3c(c2)OCO3)C(=O)O)cc1 (stereo not drawn)
III = Cc1oc(-c2cccc(-c3ccccc3)c2)nc1CCOc1ccc(OC(C)(C)C(=O)O)c(Cc2ccccc2)c1
IV = CCc1ccc(-c2nc(CCOc3ccc(OC(C)(C)C(=O)O)cc3)c(C)o2)cc1
// query Hey, can you sort those compounds up there by pIC50, smallest first? Give your ranking as a list of the labels in the requested order.
// result I, II, III, IV
(I: 6.59, II: 6.84, III: 7.19, IV: 7.60)

1 = Cc1ccc(OC(C)(Cc2ccc(OCCc3nc(-c4ccc(-c5ccccc5)cc4)oc3C)cc2)C(=O)O)cc1C (stereo not drawn)
2 = Cc1oc(-c2ccccc2)nc1CCOc1ccc(OC(C)(C)C(=O)O)c(Cc2ccccc2)c1
// query Of the two listed items, 1 and 2 , which carries the larger pIC50 figure? Write down the label of the entry you select.
// result 2
(2: 7.30, 1: 6.78)

A = Cc1oc(C2CCCCC2)nc1CCOc1ccc(CC(C)(Oc2ccc(C(F)(F)F)cc2)C(=O)O)cc1 (stereo not drawn)
B = Cc1oc(-c2ccccc2)nc1CCCc1ccc(CC(C)(Oc2ccccc2)C(=O)O)s1 (stereo not drawn)
// query Select one. Lower pIC50: A or B Write down the label of the entry you select.
// result B
(B: 6.67, A: 7.21)

A = Cc1oc(-c2ccc(-c3ccccc3)cc2)nc1CCOc1ccc(OC(C)(C)C(=O)O)c(CCc2ccccc2)c1
B = Cc1oc(C2CCCCC2)nc1CCOc1ccc(CC(C)(Oc2ccc(C3CCCCC3)cc2)C(=O)O)cc1 (stereo not drawn)
C = CCC(Cc1ccc(OCCc2nc(-c3cccc(-c4ccccc4)c3)oc2C)cc1)(Oc1ccccc1)C(=O)O (stereo not drawn)
// query Hey, can you sort those compounds up there by pIC50, smallest first? Give your ranking as a list of the labels in the requested order.
// result C, A, B
